Target: human alpha 7-wt nAChR (Homo sapiens, UniProt P36544)
Construct: expressed in transfected cells
Sequence (P36544 23-502): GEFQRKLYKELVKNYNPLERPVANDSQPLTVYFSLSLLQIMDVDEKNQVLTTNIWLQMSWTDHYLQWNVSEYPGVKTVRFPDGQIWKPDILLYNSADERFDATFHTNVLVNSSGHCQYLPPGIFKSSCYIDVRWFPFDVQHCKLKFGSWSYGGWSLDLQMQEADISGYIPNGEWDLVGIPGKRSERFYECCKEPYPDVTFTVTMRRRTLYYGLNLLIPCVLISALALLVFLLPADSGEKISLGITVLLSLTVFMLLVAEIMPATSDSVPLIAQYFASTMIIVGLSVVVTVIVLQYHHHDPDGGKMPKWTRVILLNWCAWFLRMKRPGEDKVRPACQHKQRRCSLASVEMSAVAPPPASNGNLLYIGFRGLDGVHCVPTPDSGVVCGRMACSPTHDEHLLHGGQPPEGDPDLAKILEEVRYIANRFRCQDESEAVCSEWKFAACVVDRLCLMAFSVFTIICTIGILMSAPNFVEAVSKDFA
Experiment: Ca2+ flux imaging (FDSS) (protocol B)
Format: cell-based
Conditions: Ca2+ assay as described in D.1; read-out: pEC50 (converted)
Please go through the items and note down their EC50.
Number only, in nM; omit the unit.

Value of EC50 reported for the compound Cc1cc(-c2ccc(N3CCO[C@H](C(F)(F)F)C3)c(F)c2CNC(=O)CC2CCC2)cc(C)n1 is 115

// Cc1cc(-c2c(F)cc(N3CCO[C@H](C(F)(F)F)C3)cc2CNC(=O)C2CC2)cc(C)n1 : EC50 value = 81.3

Record Cc1cc(-c2cc(F)c(N3C[C@@H](C)O[C@@H](C)C3)cc2CNC(=O)c2cc(C)on2)cc(C)n1 , field EC50: 550

EC50 in this record for Cc1cc(-c2ccc(N3CCO[C@@H](C(F)(F)F)C3)c(F)c2CNC(=O)c2cc(C)on2)cc(C)n1 : 234

Measured EC50, Cc1cc(-c2ccc(C3C[C@@H](C)O[C@@H](C)C3)c(F)c2CNC(=O)CC(C)C)cc(C)n1 (relative stereo) : 229

The reported value for Cc1cc(-c2c(F)cc(N3C[C@@H](C)O[C@@H](C)C3)cc2CNC(=O)c2cc(C)on2)cc(C)n1 in terms of EC50 is 209

// sample Cc1cc(-c2ccc(N3CCOCC3)cc2CNC(=O)c2ccc(F)cc2C)ccn1 , its EC50 was 479

Documented EC50 of Cc1cc(-c2ccc(N3CCCC(C(F)(F)F)C3)cc2CNC(=O)c2ccc(F)cc2C)cc(C)n1 (stereo not drawn) : 245

# EC50 (compound: Cc1cc(-c2ccc(N3C[C@@H](C)O[C@@H](C)C3)c(CNC(=O)c3ccc(F)cc3C)c2)cc(C)n1 ) is 14.1

What the record says about Cc1cc(-c2ccc(N3CCO[C@@H](C(F)(F)F)C3)c(F)c2CNC(=O)CC2CC2)cc(C)n1 : EC50 is 83.2

Briefly, EC50 measured for Cc1cc(-c2ccc(N3C[C@@H](C)O[C@@H](C)C3)c(F)c2CNC(=O)CC(C)(C)C)cc(C)n1 : 24

The value of EC50 measured for the compound Cc1cc(-c2ccc(N3C[C@@H](C)O[C@@H](C)C3)c(F)c2CNC(=O)c2cnc(Cl)cc2Cl)cc(C)n1 turned out to be 148

Consider CC(C)C(=O)NCc1cc(N2C[C@@H](C)O[C@@H](C)C2)ccc1-c1ccncc1 . Its measured EC50 is 1100

get_value(item= Cc1cc(-c2c(F)cc(N3C[C@@H](C)O[C@@H](C)C3)cc2CNC(=O)C2CC2)cc(C)n1 , readout=EC50) returns 17.4

The reported value for Cc1cc(-c2ccc(N3C[C@H](C(F)(F)F)C[C@H](C(F)(F)F)C3)cc2CNC(=O)c2cc(C)on2)cc(C)n1 in terms of EC50 is 126

Query Cc1cc(-c2ccc(N3C[C@H](C(F)(F)F)C[C@H](C(F)(F)F)C3)cc2CNC(=O)c2ccc(F)cc2C)cc(C)n1 yields EC50 of 11

// EC50 lookup, compound = Cc1cc(-c2ccc(N3C[C@@H](C)O[C@@H](C)C3)c(CNC(=O)C(C)C)c2)cc(C)n1 , result: 91.2

// EC50 lookup, compound = Cc1cc(-c2ccc(N3CCOCC3)cc2CNC(=O)c2cc(C)on2)cc(C)n1 , result: 6170
